Entries and their Percent Effect values follow.
Test system: Wolbachia pipientis
Experiment: Anti-Wolbachia Cell-Based Screen
Format: functional
Design: scale not given: in the data most compounds retested in dose-response had high values
Details: 5 µM
In all, about 48,000 compounds went through this assay and about 13,000 (27%) showed an effect of 50% or more. The list shows a part of the results.
Report the figure in % without appending any unit label.

Molecule: CC1CCc2nc(O)c(C(=O)NCCN(C)C)cc2C1 (centres undefined)
Tested target: Wolbachia pipientis
Percent Effect, %: 7.628

**Query** Which Percent Effect value is on record for CC(NC(=O)N1CCC(CO)CC1)c1csc2ccccc12 (centres undefined) ?
**Result** -26.26

**Query** Another molecule: CCc1ccc2nc(C)cc(C(=O)NC3CCNC3=O)c2c1 (centres undefined)
**Result** 1.98

**Query** Another molecule: Cl.NC[C@H]1CC[C@H](c2c(C(N)=O)sc3ccccc32)CC1
**Result** 138.4

**Query** Another molecule: Cc1nnc(CN(Cc2ccc3c(c2)OCO3)C2CCC(C)CC2)o1 (centres undefined)
**Result** 119.4

**Query** Another molecule: Cc1noc([C@@H](C)NCc2cccc(Cl)c2)c1C(=O)O.Cl
**Result** -9.594

---

Entries and their Percent Effect values follow.
System: Wolbachia pipientis
Assay: Anti-Wolbachia Cell-Based Screen
Format: functional
Parameters: scale not given: in the data most compounds retested in dose-response had high values
Conditions: 5 µM
The campaign covered roughly 48,000 compounds. About 13,000 (27%) showed an effect of 50% or more. The list shows a part of the results.
Report the figure in % without appending any unit label.

Compound: CN1CCN(c2ccc3ccc(C(=O)N4CCCO4)cn23)CC1.O=C(O)C(F)(F)F
Percent Effect / %: 0.4274
//
Compound: CN1CCCN(C(=O)c2ccnn2-c2ccc3ccccn23)CC1.O=C(O)C(F)(F)F
Percent Effect / %: 83.85
//
Compound: CC(C)(CO)CNC(=O)c1ccnn1-c1ccc2ccccn12
Percent Effect / %: -11.35

**Query** Which Percent Effect value is on record for CC(C)(C)C(=O)N1CC[C@H]2NC(=O)N(c3ccc(F)cc3)C(=O)[C@H]21 ?
**Result** -4.362

**Query** Another compound: COC1CN(C(=O)OCC(C)C)CCC(=O)N(C)c2ccccc21 (stereo not given)
**Result** 62.93

---

Entries and their Percent Effect values follow.
Tested on: Wolbachia pipientis
Test: Anti-Wolbachia Cell-Based Screen
Type: functional
Set-up: scale not given: in the data most compounds retested in dose-response had high values
Settings: 5 µM
About 13,000 (27%) of roughly 48,000 compounds showed an effect of 50% or more. This is one part of the list.
Report the figure in % without appending any unit label.

Molecule: Cc1ncc2c(n1)CN(CCCc1nc3ccccc3o1)CC2
Measured value: -1.914

Molecule: CCN(C)c1ncnc2c1CCN(CC1CCOC1)CC2.O=C(O)C(F)(F)F (stereo not given)
Measured value: -11.17

**Query** Enter reported Percent Effect observed with Wolbachia pipientis for Cc1nn(C)c2nc(N3CCNC(=O)C3Cc3ccccc3)sc12 (stereo not given)
**Result** 4.207

**Query** Another molecule: O=C(O)C(F)(F)F.O=C(c1ccccn1)N1CCC2(CCCN(c3nncs3)C2)C1 (stereo not given)
**Result** -19.65

**Query** Another molecule: CC(C)OCc1ncn2c1CN(Cc1cnn(C)c1)CCC2.O=C(O)C(F)(F)F
**Result** -6.941
